All values here come from patent US20250122223A1.

Target: USP7 (Homo sapiens (Human), UniProt Q93009)
Sequence (Q93009 whole entry): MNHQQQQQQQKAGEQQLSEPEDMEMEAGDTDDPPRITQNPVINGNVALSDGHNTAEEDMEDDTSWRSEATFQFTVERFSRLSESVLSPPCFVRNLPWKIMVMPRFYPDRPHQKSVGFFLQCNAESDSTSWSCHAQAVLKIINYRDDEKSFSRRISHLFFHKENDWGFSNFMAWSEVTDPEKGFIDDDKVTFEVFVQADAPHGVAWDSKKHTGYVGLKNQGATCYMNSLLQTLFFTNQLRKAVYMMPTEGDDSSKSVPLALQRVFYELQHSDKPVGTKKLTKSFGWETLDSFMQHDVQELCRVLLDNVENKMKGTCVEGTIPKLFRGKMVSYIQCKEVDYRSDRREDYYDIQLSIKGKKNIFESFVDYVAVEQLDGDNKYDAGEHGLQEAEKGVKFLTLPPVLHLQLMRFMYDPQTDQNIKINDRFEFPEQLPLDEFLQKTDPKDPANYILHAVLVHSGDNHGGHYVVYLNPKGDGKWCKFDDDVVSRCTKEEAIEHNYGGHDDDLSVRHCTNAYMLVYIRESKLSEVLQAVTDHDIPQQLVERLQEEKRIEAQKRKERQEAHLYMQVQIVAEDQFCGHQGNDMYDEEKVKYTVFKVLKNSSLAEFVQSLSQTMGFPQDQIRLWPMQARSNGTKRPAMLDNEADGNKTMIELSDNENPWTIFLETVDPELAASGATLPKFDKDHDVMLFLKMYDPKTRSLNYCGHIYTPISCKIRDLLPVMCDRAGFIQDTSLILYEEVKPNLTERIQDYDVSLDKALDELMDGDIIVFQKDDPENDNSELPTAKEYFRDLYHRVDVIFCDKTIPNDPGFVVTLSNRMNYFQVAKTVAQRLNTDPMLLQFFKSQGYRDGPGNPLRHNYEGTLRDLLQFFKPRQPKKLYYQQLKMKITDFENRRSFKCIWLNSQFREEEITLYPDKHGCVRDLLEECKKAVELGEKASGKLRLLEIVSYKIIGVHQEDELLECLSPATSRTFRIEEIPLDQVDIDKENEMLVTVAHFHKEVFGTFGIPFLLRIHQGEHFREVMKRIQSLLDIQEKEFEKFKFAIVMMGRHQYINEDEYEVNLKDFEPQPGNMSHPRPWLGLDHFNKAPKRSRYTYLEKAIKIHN
Test: USP7 fluorescence polarisation (FP) assay with ubiquitin-Lys-TAMRA substrate
Assay type: biochemical
Details: biochemical inhibition; read-out: USP7 IC50 activity (Table 3a, classes)
A collection of molecules and their measured IC50

Molecule: C[C@@H]1CN[C@@H](c2ccc(-n3c(Cl)cc4c(=O)n(CC5(O)CCN(C(=O)[C@]6(C)C[C@H]6C(F)(F)F)CC5)cnc43)cc2)CO1 [Example 108]
IC50: < 100 nM
//
Molecule: C[C@H]1CN[C@H](c2ccc(-n3c(Cl)cc4c(=O)n(CC5(O)CCN(C(=O)c6ccccc6F)CC5)cnc43)cc2)CO1 [Example 36]
IC50: 250 to 2000 nM
//
Molecule: C[C@@]1(C(=O)N2CCC(O)(Cn3cnc4c(cc(Cl)n4-c4ccc([C@H]5COCCN5)cc4)c3=O)CC2)C[C@H]1C(F)(F)F (single isomer, unassigned) [Example 110]
IC50: < 100 nM

----------
Biological target: USP7 (Homo sapiens (Human))
Experiment: USP7 fluorescence polarisation (FP) assay with ubiquitin-Lys-TAMRA substrate
Type: biochemical
Settings: biochemical inhibition; read-out: USP7 IC50 activity (Table 3a, classes)
Procedure: USP7 activity was monitored in a fluorescence polarisation (FP) homogeneous assay using the isopeptide ubiquitin-Lys-TAMRA substrate (U-558, Boston Biochem). Full-length USP7 was purchased from Boston Biochem (His6-USP7FL, E-519). […] FP was measured every 5 min over a period of 1.5 h (within the linear range of the assay) using a Pherastar FSX (BMG Labtech) exciting at 530 nm and measuring the amount of parallel and perpendicular light at 575 nm. […]
pIC50: −log10 of the molar value.

Compound: O=C(C[C@H](c1ccccc1)C(F)F)N1CCC(O)(Cn2cnc3c(cc(Cl)n3-c3ccc([C@@H]4COCCN4)cc3)c2=O)CC1 (single isomer, unassigned)
pIC50: > 7.00
//
Compound: Cc1ccc(C(=O)N2CCC(O)(Cn3cnc4c(cc(Cl)n4-c4ccc([C@H]5CO[C@H](C)CN5)c(C)c4)c3=O)CC2)cc1
pIC50: 6.60 to 7.00
//
Compound: C[C@H]1COC[C@@H](c2ccc(-n3c(Cl)cc4c(=O)n(CC5(O)CCN(C(=O)c6ccc(Cl)cc6)CC5)cnc43)cc2)N1 (single isomer, unassigned)
pIC50: 6.60 to 7.00
//
Compound: C[C@H]1OCCN[C@@H]1c1ccc(-n2c(Cl)cc3c(=O)n(CC4(O)CCN(C(=O)c5ccc(Cl)cc5)CC4)cnc32)cc1
pIC50: > 7.00
//
Compound: CC1(C(=O)N2CCC(O)(Cn3cnc4c(cc(Cl)n4-c4ccc([C@H]5COCCN5)cc4)c3=O)CC2)CC1 (single isomer, unassigned)
pIC50: > 7.00
//
Compound: Cc1ccc(C(=O)N2CCC(O)(Cn3cnc4c(cc(Cl)n4-c4ccc([C@H]5CO[C@H](C)CN5)c(C)c4)c3=O)CC2)c(C)c1
pIC50: 5.70 to 6.60
//
Compound: C[C@H]1CN[C@H](c2ccc(-n3c(Cl)cc4c(=O)n(CC5(O)CCN(C(=O)[C@]6(C)C[C@H]6C(F)(F)F)CC5)cnc43)cc2)CO1 (single isomer, unassigned)
pIC50: > 7.00
//
Compound: Cc1cc(Cl)ccc1C(=O)N1CCC(O)(Cn2cnc3c(cc(Cl)n3-c3ccc([C@H]4CO[C@H](C)CN4)c(C)c3)c2=O)CC1
pIC50: 6.60 to 7.00
//
Compound: O=C(c1ccc(Cl)cc1)N1CCC(O)(Cn2cnc3c(cc(Cl)n3-c3ccc([C@@H]4CO[C@@H](C5CC5)CN4)cc3)c2=O)CC1 (single isomer, unassigned)
pIC50: 6.60 to 7.00
//
Compound: Cc1cc(-n2c(Cl)cc3c(=O)n(CC4(O)CCN(C(=O)c5ccc(C(F)(F)F)cc5)CC4)cnc32)ccc1[C@H]1CO[C@H](C)CN1
pIC50: 6.60 to 7.00
//
Compound: C[C@H]1CN[C@H](c2ccc(-n3c(Cl)cc4c(=O)n(CC5(O)CCN(C(=O)c6ccc(F)cc6)CC5)cnc43)cc2)CO1
pIC50: 6.60 to 7.00
//
Compound: CC1(C)CN[C@@H](c2ccc(-n3c(Cl)cc4c(=O)n(CC5(O)CCN(C(=O)C[C@H](c6ccccc6)C(F)(F)F)CC5)cnc43)cc2)CO1 (mixture of isomers)
pIC50: > 7.00
//
Compound: C[C@H]1CN[C@H](c2ccc(-n3c(Cl)cc4c(=O)n(CC5(O)CCN(C(=O)c6ccc(F)cc6F)CC5)cnc43)cc2)CO1
pIC50: 6.60 to 7.00
//
Compound: CC[C@H]1CN[C@H](c2ccc(-n3c(Cl)cc4c(=O)n(CC5(O)CCN(C(=O)[C@@]6(C)C[C@@H]6C)CC5)cnc43)cc2)CO1
pIC50: 6.60 to 7.00
//
Compound: C[C@@H]1CN[C@@H](c2ccc(-n3c(Cl)cc4c(=O)n(CC5(O)CCN(C(=O)c6ccc(Cl)cc6)CC5)cnc43)cc2)CO1
pIC50: > 7.00
//
Compound: CC[C@H]1CN[C@H](c2ccc(-n3c(Cl)cc4c(=O)n(CC5(O)CCN(C(=O)c6ccc(Cl)cc6)CC5)cnc43)cc2)CO1
pIC50: 6.60 to 7.00
//
Compound: C[C@H]1CN[C@H](c2ccc(-n3c(Cl)cc4c(=O)n(CC5(O)CCN(C(=O)c6ccc(C(F)F)cc6)CC5)cnc43)cc2)CO1
pIC50: 6.60 to 7.00
//
Compound: Cc1cc(-n2c(Cl)cc3c(=O)n(CC4(O)CCN(C(=O)c5ccc(Cl)cc5)CC4)cnc32)ccc1[C@H]1CO[C@H](C)CN1
pIC50: 6.60 to 7.00
//
Compound: CC1(C)COCC(c2ccc(-n3c(Cl)cc4c(=O)n(CC5(O)CCN(C(=O)C6(C)CC6)CC5)cnc43)cc2)N1 (centres unmarked)
pIC50: 6.60 to 7.00
//
Compound: CC1(C(=O)N2CCC(O)(Cn3cnc4c(cc(Cl)n4-c4ccc([C@@H]5COCCN5)cc4)c3=O)CC2)CC1C(F)(F)F (some centres unmarked)
pIC50: > 7.00
//
Compound: CC1(C)CN[C@H](c2ccc(-n3c(Cl)cc4c(=O)n(CC5(O)CCN(C(=O)c6ccc(F)cc6)CC5)cnc43)cc2)CO1 (single isomer, unassigned)
pIC50: 6.60 to 7.00
//
Compound: C[C@H]1COC[C@@H](c2ccc(-n3c(Cl)cc4c(=O)n(CC5(O)CCN(C(=O)C6(C)CC6)CC5)cnc43)cc2)N1 (racemic)
pIC50: > 7.00
//
Compound: O=C(c1ccc(Cl)cc1)N1CCC(O)(Cn2cnc3c(cc(Cl)n3-c3ccc([C@@H]4COCCN4)cc3)c2=O)CC1 (single isomer, unassigned)
pIC50: > 7.00
